systemUnderTest: T1, human PCSK9 (proprotein convertase subtilisin kexin type 9) (human, UniProt Q8NBP7 31-692)
T1 construct: Directly immobilized (SPR ProteOn), biotinylated (BLI), or in solution, depending on the assay; also called hPCSK9
T1 sequence (Q8NBP7 31-692 limits assumed): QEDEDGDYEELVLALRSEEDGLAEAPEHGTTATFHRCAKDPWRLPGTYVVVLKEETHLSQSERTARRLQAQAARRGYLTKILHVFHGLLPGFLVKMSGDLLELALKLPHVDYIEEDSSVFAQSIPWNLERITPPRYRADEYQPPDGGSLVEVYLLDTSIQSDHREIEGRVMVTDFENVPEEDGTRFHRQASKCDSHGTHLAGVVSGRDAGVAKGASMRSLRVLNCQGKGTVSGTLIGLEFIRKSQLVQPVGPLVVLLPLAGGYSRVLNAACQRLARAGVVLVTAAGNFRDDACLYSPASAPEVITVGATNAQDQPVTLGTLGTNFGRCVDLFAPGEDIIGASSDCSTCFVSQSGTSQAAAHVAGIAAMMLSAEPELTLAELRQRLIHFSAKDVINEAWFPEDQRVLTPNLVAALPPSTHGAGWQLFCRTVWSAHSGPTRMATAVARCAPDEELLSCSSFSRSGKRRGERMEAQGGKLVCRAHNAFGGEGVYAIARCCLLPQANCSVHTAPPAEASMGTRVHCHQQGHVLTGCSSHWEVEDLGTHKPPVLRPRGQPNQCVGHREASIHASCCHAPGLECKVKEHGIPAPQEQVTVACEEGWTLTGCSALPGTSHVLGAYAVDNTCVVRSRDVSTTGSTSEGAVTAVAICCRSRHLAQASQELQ
procedureSummary: BLI, biotinylated hPCSK9 on sensor tips
Description: Tips were then immersed into a buffer-only well for observation of Adnectin dissociation. Experiments were performed in a temperature controlled environment at either 25 or 37° C., and the oscillation speed was set at 1500 rpm. Binding interaction analysis was performed using proprietary software from Fortebio (Fortebio Data Analysis Software version 6.3.0.36). Global fits were performed for all samples, using a 1:1 binding model. […]
propertyName: koff (s⁻¹)

Recorded results for 5 binders are shown here.
1) 2381G09 (designed binder, Anti-PCSK9 Adnectin, His6-tagged) MGVSDVPRDLEVVAATPTSLLISWDAPAGDGYGYYRITYGETGGNSPVQEFTVPVSKGTATISGLKPGVDYTITVYAVEFTFPGAGYYHRPISINYRTEIDKPSQHHHHHH: 0.000291
2) ATI001174 (designed binder, PEGylated on the cysteine of the C-terminal EIEKPCQ tail, PEGylated, non-His-tagged cysteine mutant of 2013E01; also called ATI-1174; ATI1174) MGVSDVPRDLEVVAATPTSLLISWVPPSDDYGYYRITYGETGGNSPVQEFTVPIGKGTATISGLKPGVDYTITVYAVEFPWPHAGYYHRPISINYRTEIEKPCQ: 0.000901
3) ATI001119 (designed binder, PEGylated on the cysteine of the C-terminal tail (marked by asterisk in Table 5 as having been pegylated; PEG not specified), Anti-PCSK9 Adnectin, cysteine mutant of 2012A04, His6-tagged; also called 2012A04 Cys mut) MGVSDVPRDLEVVAATPTSLLISWRPPSNGHGYYRITYGETGGNSPVQEFTVPVNEGTATISGLKPGVDYTITVYAVEFPFKWSGYYHRPISINYRTGSGCHHHHHH: 0.000445
4) 2971A03 (designed binder, Anti-PCSK9 Adnectin, His6-tagged) MGVSDVPRDLEVVAATPTSLLISWDPPSDDYGYYRITYGETGGNSPVQEFTVPIGKGTATISGLKPGVDYTITVYAVEFPWPHAGYYHRPISINYRTEIDKPSQHHHHHH: 0.00042
5) 2382G04 (designed binder, Anti-PCSK9 Adnectin, His6-tagged) MGVSDVPRDLEVVAATPTSLLISWDAPAGGGYGYYRITYGETGGNSPVQEFTVPSSKGTATISGLKPGVDYTITVYAVEFDFPGAGYYHRPISINYRTEIDKPSQHHHHHH: 0.000464

1 = 2382H03 (designed binder, Anti-PCSK9 Adnectin, His6-tagged) MGVSDVPRDLEVVAATPTSLLISWDAPAEGAYGYYRITYGETGGNSPVQEFTVPVSKGTATISGLKPGVDYTITVYAVEYPYPFAGYYHRPISINYRTEIDKPSQHHHHHH
2 = 2382F05 (designed binder, Anti-PCSK9 Adnectin, His6-tagged) MGVSDVPRDLEVVAATPTSLLISWDAPAEAGKHYGYYRITYGETGGNSPVQEFTVPVSKGTATISGLKPGVDYTITVYAVEFDFPGAGYYHRPISINYRTEIDKPSQHHHHHH
3 = 2382B09 (designed binder, Anti-PCSK9 Adnectin, His6-tagged) MGVSDVPRDLEVVAATPTSLLISWDAPADAYGYYRITYGETGGNSPVQEFTVPVSKGTATISGLKPGVDYTITVYAVEFDYPGSGYYHRPISINYRTEIDKPSQHHHHHH
Q. Rank entries according to their koff, from the largest number down. Return the labels ranked in the requested order, please.
A. 2, 1, 3
